- testedSystem: hVR1 (Homo sapiens)
- Construct: expressed in transfected cells; host or cells: CHO K1 cells (ECACC), stably transfected
- procedureSummary: Functional test on human VR1, NADA (N-arachidonoyl dopamine) stimulus
- Format: cell-based, human being
- conditionContext: includes values given in brackets after pAG, read-out: Ki (human being) [nM] NADA
measuredEndpoint: Ki

Solved entries (count: 3):
# compound, Ki
records = [
    ("CC(C(=O)NCc1cc(C(C)(C)C)nn1-c1cccc(Cl)c1)c1ccc2c(c1)OCCO2 (stereo not shown)", "4.3 nM"),
    ("CC(C)(C)c1cc(CNC(=O)Nc2cnc3ccccc3c2)n(-c2cccc(Cl)c2)n1", "33.3 nM"),
    ("CC(C(=O)NCc1cc(C(C)(C)C)nn1-c1cccc(Cl)c1)c1ccc2ocnc2c1 (stereo not shown)", "1.1 nM"),
]

API: the following record is the query input.
Enquiry: Could you please provide reported Ki for CC(C(=O)NCc1cc(C(C)(C)C)nn1-c1cccc(Cl)c1)c1ccc2cccnc2c1 (stereo not shown) ? Thanks!
Return: 68.1 nM

====

Recorded inhibition at 2.5 µM by entry
- testedSystem: hVR1 (Homo sapiens, UniProt Q8NER1)
- Construct: expressed in transfected cells; host or cells: CHO K1 cells (ECACC), stably transfected
- Sequence (Q8NER1 whole entry): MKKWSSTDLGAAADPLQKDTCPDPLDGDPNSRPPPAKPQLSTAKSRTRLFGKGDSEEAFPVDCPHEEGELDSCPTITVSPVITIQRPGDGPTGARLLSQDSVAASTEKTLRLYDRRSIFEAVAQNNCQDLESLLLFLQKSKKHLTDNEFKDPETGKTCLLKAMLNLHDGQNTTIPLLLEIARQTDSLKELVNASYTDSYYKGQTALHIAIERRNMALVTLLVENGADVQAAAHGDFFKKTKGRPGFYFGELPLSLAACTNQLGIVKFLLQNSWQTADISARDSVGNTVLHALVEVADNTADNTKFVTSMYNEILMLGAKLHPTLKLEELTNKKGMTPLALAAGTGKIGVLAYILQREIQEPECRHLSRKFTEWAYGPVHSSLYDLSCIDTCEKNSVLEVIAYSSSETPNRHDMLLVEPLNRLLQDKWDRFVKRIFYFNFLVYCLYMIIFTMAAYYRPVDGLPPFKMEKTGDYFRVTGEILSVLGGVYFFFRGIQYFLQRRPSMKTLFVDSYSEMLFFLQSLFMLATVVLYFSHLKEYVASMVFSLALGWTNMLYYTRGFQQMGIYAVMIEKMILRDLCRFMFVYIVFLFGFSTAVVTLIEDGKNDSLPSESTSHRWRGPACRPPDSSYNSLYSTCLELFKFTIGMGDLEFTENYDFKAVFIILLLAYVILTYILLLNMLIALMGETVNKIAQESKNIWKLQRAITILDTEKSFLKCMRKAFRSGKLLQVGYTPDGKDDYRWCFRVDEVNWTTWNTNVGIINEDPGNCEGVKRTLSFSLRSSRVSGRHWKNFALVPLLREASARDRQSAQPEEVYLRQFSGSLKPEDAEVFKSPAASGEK
- procedureSummary: Functional test on human VR1, 45° C. stimulus
- Type: cell-based, human being
- conditionContext: @ 2.5 μM, read-out: IC50 (human being), 45° C.: inhibition (as a percentage)
Express the result in % but write the number alone.

# compound, resultUnits, experimentalValue
measured = [
    ("CC(C)(C)c1cc(CNC(=O)Nc2cccc3ccc(O)cc23)n(-c2cccc(Cl)c2)n1 [Example 101]", "%", 46),
]

Enquiry: Could you please provide reported inhibition at 2.5 µM for O=C(NCc1cc(C(F)(F)F)nn1-c1cccc(Cl)c1)Nc1ccc2c(c1)OCO2 [Example 83] ? Thanks!
Return: 16

Enquiry: Could you please provide reported inhibition at 2.5 µM for O=C(NCc1cc(C(F)(F)F)nn1-c1cccc(Cl)c1)Nc1cccc2ccc(O)cc12 [Example 102] ? Thanks!
Return: 48

Enquiry: Could you please provide reported inhibition at 2.5 µM for CC(C(=O)NCc1cc(C(F)(F)F)nn1-c1cccc(Cl)c1)c1cccc2ccc(O)cc12 (stereo not shown) [Example 58] ? Thanks!
Return: 41

====

- testedSystem: hVR1 (Homo sapiens, UniProt Q8NER1)
- Construct: expressed in transfected cells; host or cells: CHO K1 cells (ECACC), stably transfected
- procedureSummary: Functional test on hVR1 after pH stimulus
- Format: cell-based, human being
- conditionContext: @ 10 μM, read-out: IC50 (human being) hVR1, pH: inhibition (as a percentage)
Returns true (1) if the recorded inhibition at 10 µM is greater than or equal to 20%, and false (0) otherwise.

Past entries and their recorded results:
# compound, testedSystem, categoryLabel
records = [
    ("CC(C(=O)NCc1cc(C(C)(C)C)nn1-c1cccc(Cl)c1)c1ccc2c(c1)CCN2S(C)(=O)=O (centres unmarked) [Example 10]", "hVR1 (Homo sapiens, UniProt Q8NER1)", "true (1)"),
    ("CC(C(=O)NCc1cc(C(C)(C)C)nn1-c1cccc(Cl)c1)c1ccc2nccnc2c1 (centres unmarked) [Example 77]", "hVR1 (Homo sapiens, UniProt Q8NER1)", "true (1)"),
    ("CC(C(=O)NCc1cc(C(C)(C)C)nn1-c1ccc(F)c(Cl)c1)c1cccc2cnccc12 (centres unmarked) [Example 69]", "hVR1 (Homo sapiens, UniProt Q8NER1)", "false (0)"),
    ("CC(C(=O)NCc1cc(C(C)(C)C)nn1-c1cccc(Cl)c1)c1ccc2c(c1)OCO2 (centres unmarked) [Example 11]", "hVR1 (Homo sapiens, UniProt Q8NER1)", "true (1)"),
    ("CC(C(=O)NCc1cc(C(C)(C)C)nn1-c1cccc(Cl)c1)c1cccc2cnccc12 (centres unmarked) [Example 63]", "hVR1 (Homo sapiens, UniProt Q8NER1)", "true (1)"),
    ("CC(C(=O)NCc1cc(C(F)(F)F)nn1-c1cccc(Cl)c1)c1cccc2[nH]ncc12 (centres unmarked) [Example 27]", "hVR1 (Homo sapiens, UniProt Q8NER1)", "false (0)"),
    ("CC(C)(C)c1cc(CNC(=O)Nc2ccc3c(c2)CCC3)n(-c2cccc(Cl)c2)n1 [Example 79]", "hVR1 (Homo sapiens, UniProt Q8NER1)", "true (1)"),
    ("Cc1cc2c(C(C)C(=O)NCc3cc(C(F)(F)F)nn3-c3cccc(Cl)c3)cccc2cn1 (centres unmarked) [Example 65]", "hVR1 (Homo sapiens, UniProt Q8NER1)", "true (1)"),
    ("CC(C(=O)NCc1cc(C(F)(F)F)nn1-c1ccc(Cl)cc1)c1cccc2cnccc12 (centres unmarked) [Example 68]", "hVR1 (Homo sapiens, UniProt Q8NER1)", "true (1)"),
    ("CC(C(=O)NCc1cc(C(C)(C)C)nn1-c1cccc(Cl)c1)c1cccc2ccc(O)cc12 (centres unmarked) [Example 57]", "hVR1 (Homo sapiens, UniProt Q8NER1)", "false (0)"),
]

Enquiry: State whether the measured inhibition at 10 µM reaches 20%, counting equality as reaching it, for CC(C(=O)NCc1cc(C(C)(C)C)nn1-c1cccc(Cl)c1)c1ccc2c(c1)OCCO2 (centres unmarked) [Example 13]
Return: true (1)

These data points were gathered from patent US8334315B2.
